test system: lambsquarters (Chenopodium album); assay: Test B pre-/postemergence plant response; assay type: in vivo; conditions: Preemergence, 62 g ai/ha; scale 0 to 100 (0 no effect, 100 complete control)
Measured Quantity: Plant response rating, Lambsquarters
Field format: numeric only.

Example entries begin here.
# Molecule, Numeric Value
measured = [
    ("CCCCc1ncc(C(=O)C2=C(O)CCCC2=O)c(=O)n1-c1ccccc1 [Compound 42]", 100),
    ("Cc1cc(-n2c(-c3ccccc3)ncc(C(=O)C3=C(O)CCCC3=O)c2=O)ccc1F [Compound 53]", 100),
]

Plant response rating, Lambsquarters lookup needed for Cc1cccc(Cl)c1-n1c(-c2ccccc2)ncc(C(=O)C2=C(O)CCCC2=O)c1=O [Compound 46] , thanks.
90

Plant response rating, Lambsquarters lookup needed for O=C1CCCC(O)=C1C(=O)c1cnc(-c2ccccc2)n(-c2ccccc2F)c1=O [Compound 26] , thanks.
100

Plant response rating, Lambsquarters lookup needed for COc1ccc(-n2c(-c3ccccc3)ncc(C(=O)C3=C(O)CCCC3=O)c2=O)cc1OC [Compound 218] , thanks.
100

Plant response rating, Lambsquarters lookup needed for O=C1CCCC(O)=C1C(=O)c1cnc(-c2ccsc2)n(-c2ccccc2)c1=O [Compound 56] , thanks.
98

Plant response rating, Lambsquarters lookup needed for Cc1ccc(F)cc1-n1c(-c2ccccc2)ncc(C(=O)C2=C(O)CCCC2=O)c1=O [Compound 44] , thanks.
100

Plant response rating, Lambsquarters lookup needed for Cc1ccccc1-n1c(-c2cccc(Cl)c2)ncc(C(=O)C2=C(O)CCCC2=O)c1=O [Compound 36] , thanks.
100

Plant response rating, Lambsquarters lookup needed for O=C1CCCC(O)=C1C(=O)c1cnc(-c2ccccc2)n(-c2cccc(Br)c2)c1=O [Compound 38] , thanks.
98

====

System: johnsongrass (Sorghum halepense)
Assay: Test B pre-/postemergence plant response
Type: in vivo
Details: Postemergence, 31 g ai/ha; 0 to 100 scale (0 no effect, 100 complete control)
From the text: […] Treated plants and controls were maintained in a greenhouse for 13 to 15 days, after which time all treated plants were visually evaluated and compared to controls. […]
Overview of reported Plant response rating, Johnsongrass across a group of compounds:
Field format: numeric only.

Plant response rating, Johnsongrass lookup needed for `COCCn1c(-c2cccc(Cl)c2)ncc(C(=O)C2=C(O)CCCC2=O)c1=O` , thanks.
15

Plant response rating, Johnsongrass lookup needed for `CCCn1c(-c2cc(C)cc(C)c2)ncc(C(=O)C2=C(O)CCCC2=O)c1=O` , thanks.
15

Plant response rating, Johnsongrass lookup needed for `O=C1CCCC(O)=C1C(=O)c1cnc(-c2ccccc2)n(C2CCSCC2)c1=O` , thanks.
45

Plant response rating, Johnsongrass lookup needed for `O=C1CCCC(O)=C1C(=O)c1cnc(-c2cccs2)n(C2CCCCC2)c1=O` , thanks.
50

====

system: velvetleaf (Abutilon theophrasti); test: Test A pre-/postemergence plant response; format: in vivo; conditions: Preemergence, 500 g ai/ha; 0 to 100 scale, 0 = no effect, 100 = complete control
Overview of reported Plant response rating, Velvetleaf across a group of molecules:
Field format: numeric only.

# Molecule, Plant response rating, Velvetleaf
data = [
    ("COCCn1c(-c2cccc(C)c2)ncc(C(=O)C2=C(O)C3CCC(C3)C2=O)c1=O (stereo not drawn)", 80),
    ("Cc1ccc(F)cc1-n1c(-c2cccc(Cl)c2)ncc(C(=O)C2=C(O)CCCC2=O)c1=O", 100),
    ("Cc1cccc(-c2ncc(C(=O)C3=C(O)CCCC3=O)c(=O)n2C2CCCCC2)c1", 50),
    ("CCCCn1c(-c2cc(F)cc(F)c2)ncc(C(=O)C2=C(O)C3CCC(C3)C2=O)c1=O (stereo not drawn)", 100),
    ("O=C1CCCC(O)=C1C(=O)c1cnc(-c2cccc(F)c2)n(CCC(F)(F)F)c1=O", 90),
    ("CCc1cccc(-c2ncc(C(=O)C3=C(O)CCCC3=O)c(=O)n2C2CCCCC2)c1", 70),
    ("COCCn1c(-c2cccc(F)c2)ncc(C(=O)C2=C(O)C3CCC(C3)C2=O)c1=O (stereo not drawn)", 100),
    ("COCCCn1c(-c2cccc(F)c2)ncc(C(=O)C2=C(O)C3CCC(C3)C2=O)c1=O (stereo not drawn)", 100),
]

Now for a further molecule.
Plant response rating, Velvetleaf lookup needed for `CCCn1c(-c2ccc3c(c2)OCCO3)ncc(C(=O)C2=C(O)CCCC2=O)c1=O` , thanks.
70

====

system: large crabgrass (Digitaria sanguinalis); assay: Test A pre-/postemergence plant response; assay type: in vivo; conditions: Postemergence, 125 g ai/ha; 0 to 100 scale where 0 is no effect and 100 is complete control
Overview of reported Plant response rating, Crabgrass, Large across a group of compounds:

Example entries begin here.
# Compound, Tested System, Plant response rating, Crabgrass, Large
data = [
    ("O=C1CCCC(OC(=O)C2CC2)=C1C(=O)c1cnc(-c2ccccc2)n(-c2ccccc2)c1=O [Compound 88]", "large crabgrass (Digitaria sanguinalis)", 90),
    ("COCCCn1c(-c2cccc(C)c2)ncc(C(=O)C2=C(O)CCCC2=O)c1=O [Compound 118]", "large crabgrass (Digitaria sanguinalis)", 90),
    ("Cc1ccc(-c2ncc(C(=O)C3=C(O)CCCC3=O)c(=O)n2-c2ccccc2)cc1 [Compound 80]", "large crabgrass (Digitaria sanguinalis)", 70),
]

Plant response rating, Crabgrass, Large lookup needed for Cc1ccc(Cl)cc1-n1c(-c2cc(F)cc(F)c2)ncc(C(=O)C2=C(O)CCCC2=O)c1=O [Compound 179] , thanks.
60

====

system: Italian ryegrass (Lolium multiflorum); assay: Test B pre-/postemergence plant response; format: in vivo; conditions: 62 g ai/ha, postemergence; 0 is no effect, 100 is complete control; 13 to 15 days
Measured Quantity: Ryegrass, Italian plant response rating (0 to 100 scale)
Field format: numeric only.

Ryegrass, Italian plant response rating (0 to 100 scale) lookup needed for COCCn1c(-c2ccccc2)ncc(C(=O)C2=C(O)CCCC2=O)c1=O [Compound 85] , thanks.
10

Ryegrass, Italian plant response rating (0 to 100 scale) lookup needed for O=C1CCCC(OC(=O)C2CC2)=C1C(=O)c1cnc(-c2ccccc2)n(-c2ccccc2)c1=O [Compound 88] , thanks.
5

Ryegrass, Italian plant response rating (0 to 100 scale) lookup needed for CCCCCn1c(-c2ccccc2)ncc(C(=O)C2=C(O)CCCC2=O)c1=O [Compound 89] , thanks.
5

Ryegrass, Italian plant response rating (0 to 100 scale) lookup needed for CCCCc1ncc(C(=O)C2=C(O)CCCC2=O)c(=O)n1-c1ccc(C)cc1 [Compound 67] , thanks.
5

Ryegrass, Italian plant response rating (0 to 100 scale) lookup needed for CCCCn1c(-c2cc(F)cc(F)c2)ncc(C(=O)C2=C(O)CCCC2=O)c1=O [Compound 121] , thanks.
40

Ryegrass, Italian plant response rating (0 to 100 scale) lookup needed for CCCc1ncc(C(=O)C2=C(O)CCCC2=O)c(=O)n1-c1ccccc1C [Compound 73] , thanks.
45

====

test system: winter barley (Hordeum vulgare); assay: Test B postemergence plant response; format: in vivo; conditions: Postemergence, 250 g ai/ha; scale 0 to 100 (0 no effect, 100 complete control); 13 to 15 days
The threshold is 40. Values of Plant response rating, Barley beneath it are tagged label 1; values meeting or exceeding it are tagged label 0.

Hello, is Plant response rating, Barley of the following compound strictly smaller than 40? CCCCn1c(-c2cc(F)cc(F)c2)ncc(C(=O)C2=C(O)C3CCC(C3)C2=O)c1=O (centres unmarked) [Compound 245]
label 0

Hello, is Plant response rating, Barley of the following compound strictly smaller than 40? COCCn1c(-c2cccc(C)c2)ncc(C(=O)C2=C(O)C3CCC(C3)C2=O)c1=O (centres unmarked) [Compound 233]
label 1

Hello, is Plant response rating, Barley of the following compound strictly smaller than 40? CCCn1c(-c2cccc(Br)c2)ncc(C(=O)C2=C(O)CCCC2=O)c1=O [Compound 141]
label 1

Hello, is Plant response rating, Barley of the following compound strictly smaller than 40? CCCn1c(-c2cc(F)cc(F)c2)ncc(C(=O)C2=C(O)CCCC2=O)c1=O [Compound 152]
label 0

Hello, is Plant response rating, Barley of the following compound strictly smaller than 40? O=C(C1=C(O)C2CCC(C2)C1=O)c1cnc(-c2ccsc2)n(CC2CCCO2)c1=O (centres unmarked) [Compound 229]
label 1

Hello, is Plant response rating, Barley of the following compound strictly smaller than 40? CCc1ccc(-n2c(-c3ccccc3)ncc(C(=O)C3=C(O)CCCC3=O)c2=O)cc1 [Compound 219]
label 1

Hello, is Plant response rating, Barley of the following compound strictly smaller than 40? COc1ccc(-n2c(-c3ccccc3)ncc(C(=O)C3=C(O)CCCC3=O)c2=O)cc1OC [Compound 218]
label 1

Hello, is Plant response rating, Barley of the following compound strictly smaller than 40? CCCCn1c(-c2cccc(Cl)c2)ncc(C(=O)C2=C(O)CCCC2=O)c1=O [Compound 146]
label 1

Hello, is Plant response rating, Barley of the following compound strictly smaller than 40? CCCn1c(-c2cccc(C(F)(F)F)c2)ncc(C(=O)C2=C(O)CCCC2=O)c1=O [Compound 155]
label 0

Hello, is Plant response rating, Barley of the following compound strictly smaller than 40? CCCn1c(-c2cc(C)cc(C)c2)ncc(C(=O)C2=C(O)CCCC2=O)c1=O [Compound 156]
label 0
